Each entry below lists one item and its recorded Emax value.
molecular target: human D4 receptor (Homo sapiens (Human), UniProt P21917); assay: Test 1: agonistic activity for human D4 receptor (aequorin/Gα16 luminescence in CHO-K1 cell); type: cell-based; conditions: CHO-K1; 100% = 10 μmol/L endogenous ligand
Sequence (P21917 whole entry): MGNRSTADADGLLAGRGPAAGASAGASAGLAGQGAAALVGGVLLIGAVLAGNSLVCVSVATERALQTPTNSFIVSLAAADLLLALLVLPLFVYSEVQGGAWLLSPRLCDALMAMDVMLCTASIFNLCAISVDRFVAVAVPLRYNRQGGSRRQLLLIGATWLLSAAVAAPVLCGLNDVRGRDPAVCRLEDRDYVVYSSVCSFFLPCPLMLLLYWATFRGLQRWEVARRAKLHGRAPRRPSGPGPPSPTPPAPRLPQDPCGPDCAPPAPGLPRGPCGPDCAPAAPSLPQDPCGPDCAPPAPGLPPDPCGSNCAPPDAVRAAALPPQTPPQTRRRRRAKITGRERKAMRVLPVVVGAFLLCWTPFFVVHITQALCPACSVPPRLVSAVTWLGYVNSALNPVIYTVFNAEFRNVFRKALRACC
Report the value in % with no unit label.

molecule: CNc1cccc(C2CCN(CCNC(=O)C3CCOCC3)CC2)n1 [Example 37]
unitSpec: %
Emax: 57

molecule: Cc1cccc(C2CCN(CCNC(=O)C3CCOC3)CC2)n1 (stereo not shown) [Example 22]
unitSpec: %
Emax: 57

molecule: COCC(C)(C)C(=O)NCCN1CC=C(c2cccc(C(F)(F)F)n2)CC1 [Example 18]
unitSpec: %
Emax: 61

molecule: CO[C@H]1CC[C@H](C(=O)NCCN2CCC(c3cccc(C)n3)CC2)CC1 [Example 26]
unitSpec: %
Emax: 36

molecule: Cc1cccc(C2=CCN(CCNC(=O)C3CCOCC3)CC2)n1 [Example 29]
unitSpec: %
Emax: 74

molecule: Cc1cccc(C2=CCN(CCNC(=O)[C@H]3C[C@@H]4CC[C@H]3O4)CC2)n1 [Example 13]
unitSpec: %
Emax: 55

molecule: Cc1cccc(C2=CCN(CCNC(=O)C3CCC(F)(F)CC3)CC2)n1 [Example 14]
unitSpec: %
Emax: 53

molecule: Cc1cccc(C2CCN(CCNC(=O)C3CCCOC3)CC2)n1 (stereo not shown) [Example 15]
unitSpec: %
Emax: 55

molecule: O=C(NCCN1CCC(c2cccc(C(F)(F)F)n2)CC1)[C@H]1C[C@@H]2CC[C@H]1O2 [Example 21]
unitSpec: %
Emax: 62

molecule: CC(C)(C)C(=O)NCCN1CC=C(c2cccc(C(F)(F)F)n2)CC1 [Example 31]
unitSpec: %
Emax: 52

Given the molecule COCC(C)(C)C(=O)NCCN1CC=C(c2cccc(C)n2)CC1 [Example 17] , what is its reported Emax?
51

Given the molecule COc1cccc(C2CCN(CCNC(=O)C3CCOCC3)CC2)n1 [Example 33] , what is its reported Emax?
62

Given the molecule CN(C)c1cccc(C2CCN(CCNC(=O)C3CCOCC3)CC2)n1 [Example 38] , what is its reported Emax?
35

Given the molecule Cc1cccc(C2CCN(CCNC(=O)C3CCCO3)CC2)n1 (stereo not shown) [Example 24] , what is its reported Emax?
62

Given the molecule Cc1cccc(C2=CCN(CCNC(=O)C3CCCCO3)CC2)n1 (stereo not shown) [Example 20] , what is its reported Emax?
60
